- TARGET UNDER TEST: Aβ (1-42) fibril (Homo sapiens)
- Sequence (P05067 672-713): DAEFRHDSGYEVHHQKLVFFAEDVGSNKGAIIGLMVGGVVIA
- ASSAY NOTES: in vitro sink-like Aβ assay: Aβ dissolved from fibril in presence of compound, Aβ ELISA of supernatant
- Format: biochemical
- CONDITION DESCRIPTION: Aβ (1-42) fibril pellets, PBS containing compound, 37° C. for one day, supernatant by Aβ ELISA; control (PBS without compound) = 1
READOUT TYPE: average (ratio of Aβ dissolved from fibril when the control is 1)
Lab note: jot the number down without any unit.

Prompt: Requested read-out: average (ratio of Aβ dissolved from fibril when the control is 1). Entry: CNc1ccc2nc3ccc(=[N+](C)C)cc-3sc2c1.[Cl-] [azure B]
Completion: 2.1701

Prompt: Requested read-out: average (ratio of Aβ dissolved from fibril when the control is 1). Entry: O=c1c(O)c(-c2cc(O)c(O)c(O)c2)oc2cc(O)cc(O)c12 [myricetin]
Completion: 1.3196

Prompt: Requested read-out: average (ratio of Aβ dissolved from fibril when the control is 1). Entry: O=C(OC[C@H]1O[C@@H](OC(=O)c2cc(O)c(O)c(OC(=O)c3cc(O)c(O)c(O)c3)c2)[C@H](OC(=O)c2cc(O)c(O)c(OC(=O)c3cc(O)c(O)c(O)c3)c2)[C@@H](OC(=O)c2cc(O)c(O)c(OC(=O)c3cc(O)c(O)c(O)c3)c2)[C@@H]1OC(=O)c1cc(O)c(O)c(OC(=O)c2cc(O)c(O)c(O)c2)c1)c1cc(O)c(O)c(OC(=O)c2cc(O)c(O)c(O)c2)c1 [tannic acid]
Completion: 1.3969

Prompt: Requested read-out: average (ratio of Aβ dissolved from fibril when the control is 1). Entry: CCN(CCO)c1ccc(/N=N/c2sc3cc(OC)ccc3[n+]2C)cc1 [basic blue 41]
Completion: 2.299

Prompt: Requested read-out: average (ratio of Aβ dissolved from fibril when the control is 1). Entry: COc1cc(/C=C/C(=O)CC(=O)/C=C/c2ccc(O)c(OC)c2)ccc1O [curcumin]
Completion: 2.4691

Every entry's value here was drawn from patent US20090087916A1.
